System: MDA-MB-231 multicell spheroids, viability
assay_explanation: Anticancer human tumor MDA-MB-231 cell line growth inhibition [PI3K];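 also: spheroids exposed to agents for seven days before reading; percent of vehicle control luminescence with DMSO treated spheroids as 100%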
condition_label: second compound 10 µM; first compound 1 µM; hits give low values
Binary label based on viability, T/C with cut-off 60%: below gives yes, not below gives no.

Lookup: Confirm or reject: viability, T/C of CC1(C)CCC(CN2CCN(c3ccc(C(=O)NS(=O)(=O)c4ccc(NCC5CCOCC5)c([N+](=O)[O-])c4)c(Oc4cnc5[nH]ccc5c4)c3)CC2)=C(c2ccc(Cl)cc2)C1 + Cc1nc(NC(=O)N2CCCC2C(N)=O)sc1-c1ccnc(C(C)(C)C(F)(F)F)c1 lies strictly below 60%
Found: no

Lookup: How about this compound: Cn1nccc1Nc1nccc(-c2ccn(C(CO)c3ccc(Cl)c(F)c3)c(=O)c2)n1 (stereo not given) + Cc1nc(NC(=O)N2CCCC2C(N)=O)sc1-c1ccnc(C(C)(C)C(F)(F)F)c1
Found: yes

Lookup: How about this compound: C#Cc1c(F)ccc2cc(O)cc(-c3ncc4c(N5CC6CCC(C5)N6)nc(OCC56CCCN5CC(F)C6)nc4c3F)c12 (stereo not given) + Cc1nc(NC(=O)N2CCCC2C(N)=O)sc1-c1ccnc(C(C)(C)C(F)(F)F)c1
Found: yes

Lookup: How about this compound: CC1(C)CCC(CN2CCN(c3ccc(C(=O)NS(=O)(=O)c4ccc(NCC5CCOCC5)c([N+](=O)[O-])c4)c(Oc4cnc5[nH]ccc5c4)c3)CC2)=C(c2ccc(Cl)cc2)C1 + CC(Nc1ncnc2nc[nH]c12)c1cc2cccc(Cl)c2c(=O)n1-c1ccccc1
Found: yes

* * *

Test system: MDA-MB-231 multicell spheroids, viability
assay_explanation: Anticancer human tumor MDA-MB-231 cell line growth inhibition [PI3K]; active = viability on the fitted dose curve at most 10% of control; inactive = the rest;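 also: spheroids exposed to agents for seven days before reading; percent of vehicle control luminescence with DMSO treated spheroids as 100%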
condition_label: compound 10 µM
// classify into yes (1) for active, no (0) for inactive

Lookup: What classification did C[C@@H](NC(=O)c1ncnc(N)c1Cl)c1ncc(C(=O)Nc2cc(C(F)(F)F)c(Cl)cn2)s1 end up with in this test?
Found: no (0)

Lookup: How about this compound: CC(Cn1ccc(-c2ccc(C#N)c(Cl)c2)n1)NC(=O)c1cc(C(C)O)[nH]n1 (configuration not stated)
Found: no (0)

Lookup: How about this compound: CC1(C)CCC(Nc2ncc(C(F)(F)F)c(-c3c[nH]c4c(P(C)(C)=O)c(C#N)ccc34)n2)CN1 (configuration not stated)
Found: yes (1)

Lookup: How about this compound: C#Cc1c(F)ccc2cc(O)cc(-c3ncc4c(N5CC6CCC(C5)N6)nc(OCC56CCCN5CC(F)C6)nc4c3F)c12 (configuration not stated)
Found: no (0)

Lookup: How about this compound: Cn1nccc1Nc1nccc(-c2ccn(C(CO)c3ccc(Cl)c(F)c3)c(=O)c2)n1 (configuration not stated)
Found: no (0)

Lookup: How about this compound: Cc1nc(NC(=O)N2CCCC2C(N)=O)sc1-c1ccnc(C(C)(C)C(F)(F)F)c1 (configuration not stated)
Found: no (0)

Lookup: How about this compound: C=CC(=O)N1CCN(c2nc(=O)n(-c3c(C)ccnc3C(C)C)c3nc(-c4c(O)cccc4F)c(F)cc23)C(C)C1 (configuration not stated)
Found: no (0)

Lookup: How about this compound: CC(C)NCC(C(=O)N1CCN(c2ncnc3c2C(C)CC3O)CC1)c1ccc(Cl)cc1 (configuration not stated)
Found: no (0)

Lookup: How about this compound: CC(Nc1ncnc2nc[nH]c12)c1cc2cccc(Cl)c2c(=O)n1-c1ccccc1 (configuration not stated)
Found: no (0)

Lookup: How about this compound: CCCS(=O)(=O)Nc1ccc(F)c(C(=O)c2c[nH]c3ncc(-c4ccc(Cl)cc4)cc23)c1F
Found: no (0)

Lookup: How about this compound: CNC(=O)c1ccc(N2C(=S)N(c3ccc(C#N)c(C(F)(F)F)c3)C(=O)C2(C)C)cc1F
Found: no (0)

Lookup: How about this compound: Cn1ncc(Cl)c1-c1cc(C(=O)NC(CN)Cc2cccc(F)c2)sc1Cl (configuration not stated)
Found: no (0)

Origin of measurements: PubChem BioAssay AID1963958
